system tested: human RIP1 kinase domain (2-375) (Homo sapiens (Human))
Sequence (Q13546 2-375): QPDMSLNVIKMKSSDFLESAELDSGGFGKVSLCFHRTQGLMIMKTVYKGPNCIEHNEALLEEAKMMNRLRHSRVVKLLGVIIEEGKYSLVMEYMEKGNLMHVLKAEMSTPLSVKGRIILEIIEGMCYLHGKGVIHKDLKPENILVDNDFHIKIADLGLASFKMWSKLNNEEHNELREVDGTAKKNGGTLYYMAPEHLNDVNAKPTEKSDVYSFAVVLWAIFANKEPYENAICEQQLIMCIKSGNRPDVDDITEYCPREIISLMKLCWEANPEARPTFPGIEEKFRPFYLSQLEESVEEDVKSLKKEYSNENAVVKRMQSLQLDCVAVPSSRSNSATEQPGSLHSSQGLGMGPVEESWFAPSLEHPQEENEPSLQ
protocol notes: RIP1 kinase inhibition assay (biochemical, Transcreener ADP fluorescence polarization)
condition details: Ki app (Morrison tight-binding fit); 50 nM enzyme, 50 μM ATP, 2 hours incubation, pH 7.5
property: pKi
Answers are plain numbers, as −log10 of the molar value.

Worked set:
{"molecule": "CN1C(=O)[C@H](NC(=O)c2nc3n(n2)[C@H](c2ccccc2F)CC3)CCc2cn(CC3CC3)c(=O)cc21 (single isomer, unassigned)", "pKi": 5.16}
{"molecule": "CN1C(=O)[C@@H](NC(=O)c2ncn(Cc3ccccc3F)n2)CCc2cc(=O)n(C)cc21 (single isomer, unassigned)", "pKi": 6.95}

Lab note: next molecule to report on.
Challenge: Looking for the measured pKi of CN1C(=O)[C@H](NC(=O)c2ncn(Cc3ccccc3F)n2)CCc2cn(CC3CC3)c(=O)cc21 (single isomer, unassigned) , can you help?
Response given: 5.16
